melting point values for the compounds below.

Given the entry `COC(=O)c1cc(OCCCCCCOc2ccc(-c3ccccc3)cc2)ccc1OCc1ccccc1` , report its measured melting point.
85 to 87 °C

Given the entry `O=c1[nH]c2ccccc2n1Cc1ccc(OC(F)(F)F)cc1` , report its measured melting point.
145 to 148 °C

Given the entry `CC(C)(C)C=CC1=C(O)C(=O)c2ccccc2C1=O` , report its measured melting point.
126 to 128 °C

Given the entry `Cc1c(C)c(C=O)c2c(c1C)CC(C)(C)O2` , report its measured melting point.
87 to 88 °C

Given the entry `N#Cc1ccc(N(Cc2ccc(OS(N)(=O)=O)cc2)n2cnnc2)cc1-c1ccoc1` , report its measured melting point.
195 to 196 °C

* * *

assay_metric: melting point

Consider the reported melting point for these molecules:
molecule: COc1ccc(CCNC(=O)N(C)O)cc1OCc1ccccc1
assay_metric: melting point
experimental_value: 125 to 126 °C
//
molecule: Cc1c(C)c(N2CCN(C(=O)OC(C)(C)C)CC2)c(C)c2c1OC(C)(C)C2N1CCCC1 (stereo not given)
assay_metric: melting point
experimental_value: 127 to 128 °C
//
molecule: CCCCCC1=NN(C(=O)NC2C3CC4CC(C3)CC2C4)CC1c1ccccc1 (stereo not given)
assay_metric: melting point
experimental_value: 71 °C
//
molecule: O=C(O)Cc1ccc2c(c1)C(=O)Cc1ccccc1O2
assay_metric: melting point
experimental_value: 156 to 157 °C

Given the entry `O=C(c1ccccc1)C(Cl)(Cl)C1CCCCC1` , report its measured melting point.
92.5 to 94 °C

* * *

melting point values for the molecules below.

Consider the reported melting point for these molecules:
molecule: CCCCCCCCNC(=O)N1CCC(Nc2ccc(CCNC[C@H](O)COc3ccc(F)cc3)cc2)CC1
melting point: 58 to 64 °C
--
molecule: CCCCCCCCCCCCCCN=C=O
melting point: 100 to 104 °C
--
molecule: N#Cc1ccc(NCc2ccccc2)nc1
melting point: 133 to 134 °C
--
molecule: Cc1c(C(=O)N(C)c2ccccc2)nc2n1CCc1ccccc1C2OC1CCN(C)CC1 (stereo unspecified)
melting point: 75 °C
--
molecule: CCCCOc1ccccc1C1=NC(=O)C2=NC=NC2=N1
melting point: 247 to 248 °C
--
molecule: O[C@@H]1CN(Cc2ccccc2)C[C@H]1Oc1c(Cl)cccc1Cl (relative stereo)
melting point: 78 to 80 °C

Given the entry C=CC(=O)N1CC[C@H]2[C@H]1[C@@H](CCC)C(=O)N2S(C)(=O)=O (relative stereo) , report its measured melting point.
177 to 181 °C

Given the entry CCOC(=O)C1=C(C)NC(CN(C)C)=C(C(=O)OCC)C1c1ccccc1/C=C/C(=O)OC(C)(C)C (stereo unspecified) , report its measured melting point.
146 to 148 °C

Given the entry `CS(=O)(=O)OCCn1nccc1NC=O` , report its measured melting point.
101 to 104 °C

Given the entry `COC(=O)c1ccc(-c2nnc(-c3ccc(C(C)(C)C)cc3)o2)c([N+](=O)[O-])c1` , report its measured melting point.
142 to 143 °C

Given the entry `CCOc1ccc(N)cc1-c1nc2cccnc2c(=O)[nH]1` , report its measured melting point.
208 to 210 °C

Given the entry `COC(=O)c1ccc2c(ccn2C)c1` , report its measured melting point.
108 to 110 °C

Given the entry `O=C1c2ccccc2C(=O)N1CSc1ccccn1` , report its measured melting point.
93 to 94 °C

Given the entry `O=[N+]([O-])c1ccc(Cn2cncn2)cc1` , report its measured melting point.
98 to 100 °C

Given the entry N#Cc1cnc(N)nc1-c1ccc(Cl)cc1C1(c2ccccc2F)OCC(CCl)O1 (stereo unspecified) , report its measured melting point.
184 to 191 °C

Given the entry `CCCc1c(OCCCCCC(=O)c2cc(C)c(OC)c(OC)c2C)ccc(C(=O)O)c1O` , report its measured melting point.
92 to 94 °C

Given the entry `COC(=O)Cn1nnnc1-c1cccc(C#N)c1` , report its measured melting point.
67 to 69 °C

Given the entry `COc1ccc2c(c1)c(-c1cc3c(OC)ncnc3[nH]1)cn2C` , report its measured melting point.
184 °C

Given the entry `Nc1c(Cl)nc2ccccc2c1NCc1cc(-c2ccc(F)cc2)no1` , report its measured melting point.
127 to 128 °C

Given the entry `N#Cc1nn(-c2c(Cl)cc(C(F)(F)F)cc2Cl)c(NCc2ccccn2)c1SC(F)F` , report its measured melting point.
117 to 120 °C

Given the entry CC1COC2(CCN(C(=O)C(Cl)Cl)CC2)O1 (stereo unspecified) , report its measured melting point.
115 °C

* * *

melting point values for the compounds below.

compound: CCCn1nnn(-c2cc(OCC#CI)c(Cl)cc2Cl)c1=O
experimental_value: 134 to 138 °C
--
compound: COc1ccccc1CN(CC(=O)OC(C)(C)C)S(=O)(=O)c1ccc2c(Cl)cnc(Cl)c2c1
experimental_value: 106 to 108 °C
--
compound: CC(=O)NCc1coc2c(OC(C)=O)cccc12
experimental_value: 138 to 139 °C

Given the entry O=C1CCC(C(=O)Nc2ccc(-n3nc(C(F)(F)F)cc3C(F)(F)F)cc2)O1 (stereo unspecified) , report its measured melting point.
172 to 173 °C

Given the entry `O=c1c2c(Cc3ccccc3O)n[nH]c2c2cccnc2n1-c1ccccc1` , report its measured melting point.
278 to 280 °C

Given the entry `CC(C)N=CN1c2ccccc2Cc2ccccc21` , report its measured melting point.
150 °C

Given the entry `CCCn1nc(C(C)C)c(C(=O)O)c1Cc1ccc(-c2ccccc2C(=O)O)cc1` , report its measured melting point.
226 to 230 °C

Given the entry `CC(C)c1cc(Oc2c(Cl)cc(CP(=O)(O)O)cc2Cl)ccc1O` , report its measured melting point.
178 to 181 °C

Given the entry CC(=O)C1CCC2C3CCC4CC(O)C(N5CC(C)(C)OC(C)(C)C5)CC4(C)C3C(=O)CC12C (stereo unspecified) , report its measured melting point.
212 to 215 °C

* * *

assay_metric: melting point

compound: CCc1nc2c(N)nc3ccccc3c2n1CCCCSc1ncccn1
melting point: 182 to 185 °C

Given the entry `CCOC(=O)/C(C)=C(/C)c1cccc(OCc2nc(-c3ccc(C(F)(F)F)cc3)oc2C)c1` , report its measured melting point.
115 to 116 °C

Given the entry OC(CSc1nc[nH]n1)(Cn1cncn1)c1ccc(Cl)cc1Cl (stereo not given) , report its measured melting point.
180 to 182 °C

Given the entry `CC(C)n1nc(-c2sc(C(=O)NC3CC3)nc2-c2cccc(Cl)c2)ccc1=O` , report its measured melting point.
118 to 120 °C

Given the entry `O=C1CNCCN1c1cccc([N+](=O)[O-])c1` , report its measured melting point.
137 to 139 °C

Given the entry `CCOC(=O)[C@@H](O)[C@@H](NC(=O)c1ccccc1)c1ccccc1` , report its measured melting point.
160 to 161 °C

Given the entry `O=c1nc(-c2ccccc2O)oc2ccccc12` , report its measured melting point.
206 to 208 °C

Given the entry `CC(C)C[C@H](NC(=O)OCc1ccccc1)C(=O)NC(C)(C)C(=O)CSCc1ccco1` , report its measured melting point.
80 to 82 °C

Given the entry Nc1nc2c(s1)CC(CN1CC=C(c3ccccc3)CC1)CC2 (stereo not given) , report its measured melting point.
187 to 190 °C

Given the entry `Cc1cc(C2=NN(C(=S)Cl)[C@H](C)Cc3cc4c(cc32)OCO4)ccc1[N+](=O)[O-]` , report its measured melting point.
193 to 196 °C

Given the entry `CCc1nc(N)nc(N)c1-c1cccc(Cl)c1Cl` , report its measured melting point.
228 to 230 °C

Given the entry `COc1cc(C(=O)O)ccc1CN1CCOc2ccc(NC(=O)CC3CCCC3)cc21` , report its measured melting point.
224 to 225 °C

Given the entry `CCC(=O)COc1nn(CC(=O)CC)c(-c2ccc(F)cc2)c1-c1ccc(S(C)(=O)=O)cc1` , report its measured melting point.
56 to 58 °C

Given the entry `CCOC(=O)c1cnn2c1nc(S)c1cnc3c(cnn3CC)c12` , report its measured melting point.
238 to 240 °C

* * *

melting point values for the compounds below.

Consider the reported melting point for these compounds:
compound: CN1CCN(c2ccc(Nc3ncc4ccc(-c5ccc(S(C)(=O)=O)cc5)n4n3)cc2)CC1
melting point: 234 to 238 °C
--
compound: CCOc1cccc2c(=O)c3ccccc3sc12
melting point: 112 to 115 °C
--
compound: O=C1Nc2ccccc2CCC1(Cl)Cl
melting point: 185 to 187 °C

Given the entry `Nc1cc(N2C(=O)c3ccccc3C2=O)c(F)cc1Cl` , report its measured melting point.
148 °C

Given the entry Cc1ccccc1C(=O)NC1CCC(=O)N2CCCC(C(=O)NC3CC(=O)OC3OCc3ccccc3)N2C1=O (stereo not given) , report its measured melting point.
106 to 110 °C

Given the entry COCC(C(=O)O)N(CCN(CC(=O)O)C(COC)C(=O)O)CC(=O)O (stereo not given) , report its measured melting point.
215 °C

Given the entry `CCCCn1c(=O)c2c(N(C)C)n[nH]c2n(Cc2ccccc2)c1=O` , report its measured melting point.
177 to 179 °C

Given the entry `Cc1ccc2nc(NC(=O)c3c(Cl)cccc3Cl)cc(NN)c2c1C` , report its measured melting point.
190 to 198 °C

Given the entry `CN1C(=O)CC[C@]2(C)c3ccc(SC(c4ccccc4)c4ccccc4)cc3CC[C@@H]12` , report its measured melting point.
102 to 104 °C

Given the entry `CN(C(=O)c1cnc(N2CCNC2=O)nc1N)c1cccc(C(F)(F)F)c1` , report its measured melting point.
249 to 250 °C

The reported measurements were obtained from a melting point compilation (Tetko et al.; mined from patent text by program, amines drawn as free bases though some values may be those of a salt).
